# experiment: Intrinsic clearance in human liver microsomes assessed per mg protein after 60 mins in presence of NADPH
# Assay type: ADME, Microsome
# conditionDetails: 1 h
Below, each of the molecules is paired with its reported microsomal intrinsic clearance value.

Check out these entries, answers already filled in.
# smilesString, microsomal intrinsic clearance
data = [
    ("CC(C)(NC(=O)Cc1ccc(F)c(C(F)(F)F)c1)C(=O)O", "< 7 µL/min"),
    ("CC(C)(NC(=O)Nc1ccccc1)C(=O)O", "< 7 µL/min"),
    ("CC(C)(C(=O)O)n1c(=O)[nH]c2cc(C(F)(F)F)c(F)cc21", "< 7 µL/min"),
]

So what's the measured microsomal intrinsic clearance for this one? O=C(O)CNC(=O)Nc1ccc(F)c(C(F)(F)F)c1
< 7 µL/min

So what's the measured microsomal intrinsic clearance for this one? CC(C)(CC(=O)Nc1ccc(F)c(C(F)(F)F)c1)C(=O)O
< 7 µL/min

So what's the measured microsomal intrinsic clearance for this one? O=C(Nc1ccc(F)c(C(F)(F)F)c1)NC1(C(=O)O)CCC1
7 µL/min

So what's the measured microsomal intrinsic clearance for this one? CC(C)(C(=O)O)N1CCCN(c2ccc(F)c(C(F)(F)F)c2)C1=O
< 7 µL/min

So what's the measured microsomal intrinsic clearance for this one? CC(C)(C(=O)O)N1Cc2cc(F)c(C(F)(F)F)cc2NC1=O
< 7 µL/min

So what's the measured microsomal intrinsic clearance for this one? CC(C)(NC(=O)Nc1ccc(F)c(C(F)(F)F)c1)C(=O)O
< 7 µL/min

So what's the measured microsomal intrinsic clearance for this one? CC(C)(NC(=O)Nc1ccc(F)c(C(F)(F)F)c1)C(N)=O
19 µL/min

So what's the measured microsomal intrinsic clearance for this one? O=C(Nc1ccc(F)c(C(F)(F)F)c1)NC1(C(=O)O)CC1
< 7 µL/min

----------
Below, each of the compounds is paired with its reported solubility kinetic value.
# experiment: Kinetic solubility of compound in 0.01 M HCL at 10 mg/ml at pH 2 by nephelometry
# Format: physicochemical
# conditionDetails: read-out: Kinetic_solubility

Check out these entries, answers already filled in.
# smilesString, solubility kinetic
records = [
    ("O=C(Nc1ccc(F)c(C(F)(F)F)c1)NC1(C(=O)O)CCC1", "50 to 100 µg/mL"),
    ("CC(C)(NC(=O)Nc1ccccc1)C(=O)O", "> 100 µg/mL"),
    ("CC(C)(NC(=O)Nc1ccc(F)c(C(F)(F)F)c1)C(N)=O", "50 to 100 µg/mL"),
]

So what's the measured solubility kinetic for this one? CCOC(=O)C(C)(C)NC(=O)Nc1ccc(F)c(C(F)(F)F)c1
3.1 to 6.3 µg/mL

So what's the measured solubility kinetic for this one? O=C(Nc1ccc(F)c(C(F)(F)F)c1)NC1(C(=O)O)CC1
> 100 µg/mL

So what's the measured solubility kinetic for this one? O=C(O)CNC(=O)Nc1ccc(F)c(C(F)(F)F)c1
> 100 µg/mL

So what's the measured solubility kinetic for this one? CC(C)(NC(=O)Nc1ccc(F)c(C(F)(F)F)c1)C(=O)O
25 to 50 µg/mL

So what's the measured solubility kinetic for this one? CC(C)(CC(=O)Nc1ccc(F)c(C(F)(F)F)c1)C(=O)O
25 to 50 µg/mL

So what's the measured solubility kinetic for this one? CC(C)(NC(=O)Cc1ccc(F)c(C(F)(F)F)c1)C(=O)O
50 to 100 µg/mL

So what's the measured solubility kinetic for this one? CC(C)(C(=O)O)N1CCCN(c2ccc(F)c(C(F)(F)F)c2)C1=O
> 100 µg/mL

So what's the measured solubility kinetic for this one? CC(C)(C(=O)O)N1Cc2cc(F)c(C(F)(F)F)cc2NC1=O
50 to 100 µg/mL

So what's the measured solubility kinetic for this one? CC(C)(C(=O)O)n1c(=O)[nH]c2cc(C(F)(F)F)c(F)cc21
50 to 100 µg/mL

Source: ChEMBL document CHEMBL4325878
